Sourced from ChEMBL document CHEMBL3286292

# zone of inhibition at 50 µg/disc per record follows
# Tested on: Pseudomonas aeruginosa
# ASSAY: Antibacterial activity against Pseudomonas aeruginosa assessed as growth inhibition at 50 ug/well after 24 hrs by agar well diffusion method
# Format: functional
# PARTICULARS: read-out: DIZ
The answer is to be given in mm; state only the numeric part.

Look over these answered cases.
>  <MOLECULE>
NC(=S)n1nc(Nc2nc(-c3ccc(Cl)cc3)co2)cc1-c1ccc(Cl)cc1

>  <READOUT NUMBER>
9

$$$$
>  <MOLECULE>
c1ccc(-c2c[nH]c(Nc3cc(-c4ccccc4)n(-c4nc(-c5ccccc5)cs4)n3)n2)cc1

>  <READOUT NUMBER>
17

$$$$
>  <MOLECULE>
Clc1ccc(-c2csc(Nc3cc(-c4ccc(Cl)cc4)n(-c4nc(-c5ccc(Cl)cc5)cs4)n3)n2)cc1

>  <READOUT NUMBER>
22

$$$$
>  <MOLECULE>
Cc1ccc(-c2c[nH]c(Nc3cc(-c4ccc(C)cc4)n(-c4nc(-c5ccc(C)cc5)cs4)n3)n2)cc1

>  <READOUT NUMBER>
7

$$$$
>  <MOLECULE>
Cc1ccc(-c2csc(Nc3cc(-c4ccc(C)cc4)n(-c4nc(-c5ccc(C)cc5)cs4)n3)n2)cc1

>  <READOUT NUMBER>
8

$$$$

zone of inhibition at 50 µg/disc measured on `Clc1ccc(-c2c[nH]c(Nc3cc(-c4ccc(Cl)cc4)n(-c4nc(-c5ccc(Cl)cc5)cs4)n3)n2)cc1` = 19

Form: molecule = `Cc1ccc(-c2csc(Nc3cc(-c4ccc(C)cc4)n(C(N)=S)n3)n2)cc1` ; zone of inhibition at 50 µg/disc = 6

Value of zone of inhibition at 50 µg/disc reported for the molecule `NC(=S)n1nc(Nc2nc(-c3ccc(Cl)cc3)cs2)cc1-c1ccc(Cl)cc1` is 16

response.value for `NC(=S)n1nc(Nc2nc(-c3ccccc3)cs2)cc1-c1ccccc1` (field: zone of inhibition at 50 µg/disc) = 15

====

The compounds listed here are annotated with their MBC.
# Test system: Staphylococcus aureus
# ASSAY: Bactericidal activity against Staphylococcus aureus after 24 hrs
# Format: functional
// unit must come after the numeric part

>  <MOLECULE>
Clc1ccc(-c2c[nH]c(Nc3cc(-c4ccc(Cl)cc4)n(-c4nc(-c5ccc(Cl)cc5)cs4)n3)n2)cc1

>  <RESULT>
12.5 µg

$$$$
>  <MOLECULE>
c1ccc(-c2c[nH]c(Nc3cc(-c4ccccc4)n(-c4nc(-c5ccccc5)cs4)n3)n2)cc1

>  <RESULT>
50 µg

$$$$
>  <MOLECULE>
Clc1ccc(-c2csc(Nc3cc(-c4ccc(Cl)cc4)n(-c4nc(-c5ccc(Cl)cc5)cs4)n3)n2)cc1

>  <RESULT>
12.5 µg

$$$$

Now look at this entry.
Notebook: `c1ccc(-c2csc(Nc3cc(-c4ccccc4)n(-c4nc(-c5ccccc5)cs4)n3)n2)cc1` , MBC read as 50 µg

====

# System: Bacillus subtilis
# ASSAY: Antibacterial activity against Bacillus subtilis assessed as growth inhibition at 100 ug/well after 24 hrs by agar well diffusion method
# Assay type: functional
# PARTICULARS: read-out: DIZ
PROPERTY MEASURED: zone of inhibition at 100 µg/disc
Note: a bare number is incomplete; add the unit.

Some solved entries appear below for comparison.
>  <COMPOUND>
NC(=S)n1nc(Nc2nc(-c3ccccc3)c[nH]2)cc1-c1ccccc1

>  <zone of inhibition at 100 µg/disc>
22 mm

$$$$
>  <COMPOUND>
NC(=S)n1nc(Nc2nc(-c3ccc(Cl)cc3)co2)cc1-c1ccc(Cl)cc1

>  <zone of inhibition at 100 µg/disc>
19 mm

$$$$
>  <COMPOUND>
NC(=S)N1N=C(Nc2nc(-c3ccc(Cl)cc3)c[nH]2)C[C@@H]1c1ccc(Cl)cc1

>  <zone of inhibition at 100 µg/disc>
6 mm

$$$$
>  <COMPOUND>
NC(=S)n1nc(Nc2nc(-c3ccc(Cl)cc3)cs2)cc1-c1ccc(Cl)cc1

>  <zone of inhibition at 100 µg/disc>
26 mm

$$$$
>  <COMPOUND>
c1ccc(-c2c[nH]c(Nc3cc(-c4ccccc4)n(-c4nc(-c5ccccc5)cs4)n3)n2)cc1

>  <zone of inhibition at 100 µg/disc>
27 mm

$$$$

The compound `NC(=S)n1nc(Nc2nc(-c3ccccc3)cs2)cc1-c1ccccc1` showed zone of inhibition at 100 µg/disc equal to 24 mm

Measured zone of inhibition at 100 µg/disc of `Cc1ccc(-c2c[nH]c(Nc3cc(-c4ccc(C)cc4)n(-c4nc(-c5ccc(C)cc5)cs4)n3)n2)cc1` : 16 mm

Looking up `c1ccc(-c2coc(Nc3cc(-c4ccccc4)n(-c4nc(-c5ccccc5)cs4)n3)n2)cc1` , I found its zone of inhibition at 100 µg/disc recorded as 12 mm

compound `Cc1ccc(-c2c[nH]c(Nc3cc(-c4ccc(C)cc4)n(C(N)=S)n3)n2)cc1` , zone of inhibition at 100 µg/disc observed: 13 mm

Data point: `Clc1ccc(-c2c[nH]c(Nc3cc(-c4ccc(Cl)cc4)n(-c4nc(-c5ccc(Cl)cc5)cs4)n3)n2)cc1` ; zone of inhibition at 100 µg/disc = 30 mm

Looking up O=C(N[C@H](CO)[C@H](O)c1ccc([N+](=O)[O-])cc1)C(Cl)Cl [CHLORAMPHENICOL] , I found its zone of inhibition at 100 µg/disc recorded as 38 mm

====

# Test system: Bacillus subtilis
# ASSAY: Bactericidal activity against Bacillus subtilis after 24 hrs
# Type: functional
PROPERTY MEASURED: MBC
Mention the unit after the number when you answer.

Sample answers from the record:
>  <MOLECULE>
Clc1ccc(-c2csc(Nc3cc(-c4ccc(Cl)cc4)n(-c4nc(-c5ccc(Cl)cc5)cs4)n3)n2)cc1

>  <MBC>
100 µg

$$$$
>  <MOLECULE>
c1ccc(-c2csc(Nc3cc(-c4ccccc4)n(-c4nc(-c5ccccc5)cs4)n3)n2)cc1

>  <MBC>
200 µg

$$$$
>  <MOLECULE>
Clc1ccc(-c2c[nH]c(Nc3cc(-c4ccc(Cl)cc4)n(-c4nc(-c5ccc(Cl)cc5)cs4)n3)n2)cc1

>  <MBC>
200 µg

$$$$

// below: MBC requested for another compound
// sample `c1ccc(-c2c[nH]c(Nc3cc(-c4ccccc4)n(-c4nc(-c5ccccc5)cs4)n3)n2)cc1` , its MBC was 200 µg

====

# Tested on: Pseudomonas aeruginosa
# ASSAY: Antibacterial activity against Pseudomonas aeruginosa assessed as growth inhibition at 100 ug/well after 24 hrs by agar well diffusion method
# Format: functional
# PARTICULARS: read-out: DIZ
PROPERTY MEASURED: zone of inhibition at 100 µg/disc (mm)
Answer in mm, number only, no unit symbol.

Use these answered entries as a reference point.
>  <MOLECULE>
c1ccc(-c2csc(Nc3cc(-c4ccccc4)n(-c4nc(-c5ccccc5)cs4)n3)n2)cc1

>  <zone of inhibition at 100 µg/disc [mm]>
21

$$$$
>  <MOLECULE>
Cc1ccc(-c2csc(Nc3cc(-c4ccc(C)cc4)n(-c4nc(-c5ccc(C)cc5)cs4)n3)n2)cc1

>  <zone of inhibition at 100 µg/disc [mm]>
11

$$$$
>  <MOLECULE>
NC(=S)n1nc(Nc2nc(-c3ccc(Cl)cc3)cs2)cc1-c1ccc(Cl)cc1

>  <zone of inhibition at 100 µg/disc [mm]>
18

$$$$
>  <MOLECULE>
NC(=S)n1nc(Nc2nc(-c3ccccc3)c[nH]2)cc1-c1ccccc1

>  <zone of inhibition at 100 µg/disc [mm]>
14

$$$$
>  <MOLECULE>
Clc1ccc(-c2csc(Nc3cc(-c4ccc(Cl)cc4)n(-c4nc(-c5ccc(Cl)cc5)cs4)n3)n2)cc1

>  <zone of inhibition at 100 µg/disc [mm]>
25

$$$$

Value of zone of inhibition at 100 µg/disc reported for the molecule `NC(=S)n1nc(Nc2nc(-c3ccc(Cl)cc3)c[nH]2)cc1-c1ccc(Cl)cc1` is 15

The reported zone of inhibition at 100 µg/disc of the molecule `Cc1ccc(-c2c[nH]c(Nc3cc(-c4ccc(C)cc4)n(C(N)=S)n3)n2)cc1` was 7

====

Quick reference for zone of inhibition at 25 µg/disc among some molecules
# System: Klebsiella pneumoniae
# ASSAY: Antibacterial activity against Klebsiella pneumoniae assessed as growth inhibition at 25 ug/well after 24 hrs by agar well diffusion method
# Type: functional
# PARTICULARS: read-out: DIZ

Illustrative cases are given below, each with its answer.
>  <MOLECULE>
NC(=S)n1nc(Nc2nc(-c3ccc(Cl)cc3)cs2)cc1-c1ccc(Cl)cc1

>  <zone of inhibition at 25 µg/disc>
26 mm

$$$$
>  <MOLECULE>
O=C(N[C@H](CO)[C@H](O)c1ccc([N+](=O)[O-])cc1)C(Cl)Cl

>  <zone of inhibition at 25 µg/disc>
38 mm

$$$$

Form: molecule = `Cc1ccc(-c2csc(Nc3cc(-c4ccc(C)cc4)n(-c4nc(-c5ccc(C)cc5)cs4)n3)n2)cc1` ; zone of inhibition at 25 µg/disc = 14 mm

Record `Cc1ccc(-c2c[nH]c(Nc3cc(-c4ccc(C)cc4)n(-c4nc(-c5ccc(C)cc5)cs4)n3)n2)cc1` . Reported zone of inhibition at 25 µg/disc: 13 mm

// zone of inhibition at 25 µg/disc lookup, molecule = `Cc1ccc(-c2coc(Nc3cc(-c4ccc(C)cc4)n(-c4nc(-c5ccc(C)cc5)cs4)n3)n2)cc1` , result: 6 mm
